# target_system: 3-beta-hydroxysteroid-Delta(8),Delta(7)-isomerase (Homo sapiens)
# Sequence (Q15125 whole entry): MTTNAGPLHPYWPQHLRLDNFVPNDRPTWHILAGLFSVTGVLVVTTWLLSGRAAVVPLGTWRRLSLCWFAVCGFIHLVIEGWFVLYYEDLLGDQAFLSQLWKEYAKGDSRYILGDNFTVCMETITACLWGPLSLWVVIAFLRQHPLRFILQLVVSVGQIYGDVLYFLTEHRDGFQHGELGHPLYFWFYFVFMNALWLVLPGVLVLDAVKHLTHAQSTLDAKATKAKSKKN
# assay_comment: Binding affinity to emopamil binding protein
pKi: −log10 of the molar value.

[
  {
    "cpd_smiles": "COc1cc(CCN2CCN(CCCc3ccccc3)CC2)ccc1O[11CH3]",
    "pKi": 8.76
  }
]

* * *

# target_system: Sigma non-opioid intracellular receptor 1 (Rattus norvegicus)
# Sequence (Q9R0C9 whole entry): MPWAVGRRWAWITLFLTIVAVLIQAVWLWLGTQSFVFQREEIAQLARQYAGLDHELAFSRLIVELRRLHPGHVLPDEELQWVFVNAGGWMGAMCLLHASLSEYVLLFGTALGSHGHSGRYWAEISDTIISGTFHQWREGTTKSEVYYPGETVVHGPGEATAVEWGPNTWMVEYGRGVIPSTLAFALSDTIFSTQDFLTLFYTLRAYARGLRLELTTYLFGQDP
# assay_comment: Displacement of (+)-[3H]pentazocine from sigma 1 receptor in rat brain membranes by competitive binding assay
pKi: −log10 of the molar value.

[
  {
    "cpd_smiles": "Cc1ccc(CN2CCN(Cc3ccc4c(c3)OCO4)CC2)cc1",
    "pKi": 9.04
  },
  {
    "cpd_smiles": "Ic1ccc(CN2CCN(Cc3ccc4c(c3)OCO4)CC2)cc1",
    "pKi": 9.10
  },
  {
    "cpd_smiles": "Brc1ccc(CN2CCN(Cc3ccc4c(c3)OCO4)CC2)cc1",
    "pKi": 9.11
  },
  {
    "cpd_smiles": "Fc1ccc(CN2CCN(Cc3ccc4c(c3)OCO4)CC2)cc1",
    "pKi": 9.07
  },
  {
    "cpd_smiles": "O=[N+]([O-])c1ccc(CN2CCN(Cc3ccc4c(c3)OCO4)CC2)cc1",
    "pKi": 9.37
  }
]
